Biological target: UniProtKB Q13526
Test: Cellular target engagement, live cell biotin competition assay in TNBC MDA-MB-231 cells
Type: cell-based
Parameters: endogenous in cells; host or cells: MDA-MB-231
Conditions: TNBC MDA-MB-231 cells, 5 hours treatment; concentration under E7
Non-standard residues stand in square brackets, D forms with d. Residues, ends and D or L forms follow the SMILES beside them. *: point of attachment. Ala(4-thiazolyl) = N[C@@H](Cc1cscn1)C(=O)O; Phe(4-F) = N[C@@H](Cc1ccc(F)cc1)C(=O)O; 2Nal = N[C@@H](Cc1ccc2ccccc2c1)C(=O)O; NH(4-Me-benzyl) = Cc1ccc(CN*)cc1; NMeF = CN[C@@H](Cc1ccccc1)C(=O)O; Cit = NC(=O)NCCC[C@H](N)C(=O)O; Pip = O=C(O)[C@@H]1CCCCN1; NHtBu = CC(C)(C)N*; ClAc = O=C(CCl)*
measurement.name: Cellular Target Engagement?

Answered cases to consult:
Cc1ccc(CNC(=O)[C@H](CCCNC(N)=O)NC(=O)[C@H](Cc2c[nH]c3ccccc23)NC(=O)[C@@H]2CCCCN2C(=O)[C@H](Cc2ccccc2)N(C)C(=O)CCl)cc1 [Compound 11] (ClAc-[NMeF][Pip]W[Cit]-{NH(4-Me-benzyl)})	Yes-
COC(=O)CC[C@H](NC(=O)CCl)C(=O)N1CCCC[C@H]1C(=O)N[C@@H](Cc1c[nH]c2ccccc12)C(=O)N[C@@H](Cc1cscn1)C(=O)NCc1ccc(C)cc1 [Compound 11-28] (ClAc-E(OMe)[Pip]W[Ala(4-thiazolyl)]-{NH(4-Me-benzyl)})	No
COC(=O)CC[C@H](NC(=O)CCl)C(=O)N1CCCC[C@H]1C(=O)N[C@@H](Cc1c[nH]c2ccccc12)C(=O)N[C@@H](Cc1c[nH]c2ccccc12)C(=O)NCc1ccc(C)cc1 [Compound 11-2] (ClAc-E(OMe)[Pip]WW-{NH(4-Me-benzyl)})	No
NC(=O)[C@H](Cc1ccc(O)cc1)NC(=O)[C@H](Cc1ccc2ccccc2c1)NC(=O)[C@@H]1CCCCN1C(=O)[C@H](CCC(=O)O)NC(=O)CCl [Compound 2-6] (ClAc-E[Pip][2Nal]Y-NH2)	No
COC(=O)CC[C@H](NC(=O)CCl)C(=O)N1CCCC[C@H]1C(=O)N[C@@H](Cc1c[nH]c2ccccc12)C(=O)N[C@@H](Cc1ccc(F)cc1)C(=O)NC(C)(C)C [Compound 11-18] (ClAc-E(OMe)[Pip]W[Phe(4-F)]-NHtBu)	No
COC(=O)CC[C@H](NC(=O)CCl)C(=O)N1CCCC[C@H]1C(=O)N[C@@H](Cc1c[nH]c2ccccc12)C(=O)N[C@@H](Cc1ccc(F)cc1)C(=O)NCc1ccc(C)cc1 [Compound 11-3] (ClAc-E(OMe)[Pip]W[Phe(4-F)]-{NH(4-Me-benzyl)})	Yes-Complete
CCOC(=O)[C@H](CCCNC(N)=O)NC(=O)[C@H](Cc1c[nH]c2ccccc12)NC(=O)[C@@H]1CCCCN1C(=O)[C@H](Cc1ccccc1)N(C)C(=O)CCl [Compound 18] (ClAc-[NMeF][Pip]W[Cit]-OEt)	Yes-Complete

Ask | Can you share its Cellular Target Engagement?? I mean this molecule: NC(=O)NCCC[C@H](NC(=O)[C@H](Cc1c[nH]c2ccccc12)NC(=O)[C@@H]1CCCCN1C(=O)[C@H](CCC(=O)O)NC(=O)CCl)C(N)=O [Compound 2b-18] (ClAc-E[Pip]W[Cit]-NH2)
Reply | No

---

Target: Pin1 (GST-Pin1) (Homo sapiens, UniProt Q13526)
Sequence (Q13526 whole entry): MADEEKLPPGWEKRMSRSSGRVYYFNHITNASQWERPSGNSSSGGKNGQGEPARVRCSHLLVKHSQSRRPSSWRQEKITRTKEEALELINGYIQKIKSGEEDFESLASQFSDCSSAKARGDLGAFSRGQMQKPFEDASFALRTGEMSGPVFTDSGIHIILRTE
Test: Chymotrypsin-coupled PPIase assay, inhibition of isomerase activity
Assay type: biochemical
Conditions: 12 hours pre-incubation at 4° C.; Cheng-Prusoff equation; read-out: Ki, μM (PPlase Assay)
Non-standard residues stand in square brackets, D forms with d. Residues, ends and D or L forms follow the SMILES beside them. *: point of attachment. 2Nal = N[C@@H](Cc1ccc2ccccc2c1)C(=O)O; Cit = NC(=O)NCCC[C@H](N)C(=O)O; Pip = O=C(O)[C@@H]1CCCCN1; ClAc = O=C(CCl)*
measurement.name: Ki
Answer as a quantity: numeral, then unit.

N=C(N)NCCC[C@H](NC(=O)[C@H](Cc1ccc2ccccc2c1)NC(=O)[C@@H]1CCCCN1C(=O)[C@H](CCC(=O)O)NC(=O)CCl)C(N)=O [Compound 2b-6] (ClAc-E[Pip][2Nal]R-NH2)	0.04 µM

Could you now consider this next compound?
Ask | Query Ki on Pin1 (GST-Pin1) (Homo sapiens, UniProt Q13526) for NC(=O)NCCC[C@H](NC(=O)[C@H](Cc1ccc2ccccc2c1)NC(=O)[C@@H]1CCCCN1C(=O)[C@H](CCC(=O)O)NC(=O)CCl)C(N)=O [Compound 2b-13] (ClAc-E[Pip][2Nal][Cit]-NH2)
Reply | 0.021 µM

---

Molecular target: Pin1 (GST-Pin1) (Homo sapiens, UniProt Q13526)
Test: Fluorescence polarization (FP) assay, binding to Pin1
Settings: competition with fluorescein-labeled peptide probe; 12 hours pre-incubation at 4° C.; Kenakin Ki equation; read-out: Ki, μM (FP Assay)
Non-standard residues stand in square brackets, D forms with d. Residues, ends and D or L forms follow the SMILES beside them. *: point of attachment. Morpholine(3S-CO) = O=C(O)[C@@H]1COCCN1; 2Nal = N[C@@H](Cc1ccc2ccccc2c1)C(=O)O; NH(4-Me-benzyl) = Cc1ccc(CN*)cc1; NMeF = CN[C@@H](Cc1ccccc1)C(=O)O; Cit = NC(=O)NCCC[C@H](N)C(=O)O; Pip = O=C(O)[C@@H]1CCCCN1; Acryloyl = C=CC(=O)*; ClAc = O=C(CCl)*; X1 = O=C(C1CO1)*
With a cut-off of 0.2 µM, any Ki strictly below it is called Y; any Ki meeting it or above is called N.

C=CC(=O)N[C@@H](CCC(=O)O)C(=O)N1CCCC[C@H]1C(=O)N[C@@H](Cc1ccc2ccccc2c1)C(=O)N[C@@H](CCCNC(=N)N)C(N)=O [Compound 2b-16] (Acryloyl-E[Pip][2Nal]R-NH2)	N
NC(=O)CC[C@H](NC(=O)[C@H](Cc1ccc2ccccc2c1)NC(=O)[C@@H]1COCCN1C(=O)[C@H](CCC(=O)O)NC(=O)CCl)C(N)=O [Compound 2b-5] (ClAc-E[Morpholine(3S-CO)][2Nal]Q-NH2)	N
Cc1ccc(CNC(=O)[C@H](CCCNC(N)=O)NC(=O)[C@H](Cc2c[nH]c3ccccc23)NC(=O)[C@@H]2CCCCN2C(=O)[C@H](Cc2ccccc2)NC(=O)C2CO2)cc1 (stereo partly drawn) [Compound 13] (X1-F[Pip]W[Cit]-{NH(4-Me-benzyl)})	N
Cc1ccc(CNC(=O)[C@H](CCCNC(N)=O)NC(=O)[C@H](Cc2c[nH]c3ccccc23)NC(=O)[C@@H]2CCCCN2C(=O)[C@H](Cc2ccccc2)N(C)C(=O)CCl)cc1 [Compound 11] (ClAc-[NMeF][Pip]W[Cit]-{NH(4-Me-benzyl)})	Y

Please look at the following compound next.
Ask | In the record for COC(=O)CC[C@H](NC(=O)CCl)C(=O)N1CCCC[C@H]1C(=O)N[C@@H](Cc1c[nH]c2ccccc12)C(=O)N[C@@H](Cc1ccccc1)C(N)=O [Compound 2-23] (ClAc-E(OMe)[Pip]WF-NH2) , is Ki less than 0.2 µM?
Reply | N

---

Target: Pin1 (GST-Pin1) (Homo sapiens, UniProt Q13526)
Experiment: Fluorescence polarization (FP) assay, binding to Pin1
Settings: competition with fluorescein-labeled peptide probe; 12 hours pre-incubation at 4° C.; Kenakin Ki equation; read-out: Ki, μM (FP Assay)
Non-standard residues stand in square brackets, D forms with d. Residues, ends and D or L forms follow the SMILES beside them. *: point of attachment. 2Nal = N[C@@H](Cc1ccc2ccccc2c1)C(=O)O; X2 = C[C@H]1NC(=O)N[C@H]1CCCCCC(=O)*; Cit = NC(=O)NCCC[C@H](N)C(=O)O; Pip = O=C(O)[C@@H]1CCCCN1; βNA = c1ccc2cc(N*)ccc2c1; ClAc = O=C(CCl)*
measurement.name: Ki (µM)
Answer in µM, number only, no unit symbol.

NC(=O)[C@H](Cc1ccc(O)cc1)NC(=O)[C@H](Cc1ccc2ccccc2c1)NC(=O)[C@@H]1CCCCN1C(=O)[C@H](CCC(=O)O)NC(=O)CCl [Compound 2-6] (ClAc-E[Pip][2Nal]Y-NH2)	0.28
C[C@H](NC(=O)[C@H](C)NC(=O)[C@H](CCCNC(N)=O)NC(=O)[C@H](Cc1c[nH]c2ccccc12)NC(=O)[C@@H]1CCCCN1C(=O)[C@H](CCC(=O)O)NC(=O)CCl)C(=O)N[C@@H](CCCCNC(=O)CCCCC[C@@H]1NC(=O)N[C@@H]1C)C(N)=O [Compound 2c-1] (ClAc-E[Pip]W[Cit]AAK(X2)-NH2)	0.04

Ask | Can you share its Ki? I mean this compound: NC(=O)NCCC[C@H](NC(=O)[C@H](Cc1c[nH]c2ccccc12)NC(=O)[C@@H]1CCCCN1C(=O)[C@H](CCC(=O)O)NC(=O)CCl)C(=O)Nc1ccc2ccccc2c1 [Compound 11-10] (ClAc-E[Pip]W[Cit]-βNA)
Reply | 0.11
